src = paper PMC8748714

# TGT: T1, GLP-1R L201A (Homo sapiens)
# T1 chain: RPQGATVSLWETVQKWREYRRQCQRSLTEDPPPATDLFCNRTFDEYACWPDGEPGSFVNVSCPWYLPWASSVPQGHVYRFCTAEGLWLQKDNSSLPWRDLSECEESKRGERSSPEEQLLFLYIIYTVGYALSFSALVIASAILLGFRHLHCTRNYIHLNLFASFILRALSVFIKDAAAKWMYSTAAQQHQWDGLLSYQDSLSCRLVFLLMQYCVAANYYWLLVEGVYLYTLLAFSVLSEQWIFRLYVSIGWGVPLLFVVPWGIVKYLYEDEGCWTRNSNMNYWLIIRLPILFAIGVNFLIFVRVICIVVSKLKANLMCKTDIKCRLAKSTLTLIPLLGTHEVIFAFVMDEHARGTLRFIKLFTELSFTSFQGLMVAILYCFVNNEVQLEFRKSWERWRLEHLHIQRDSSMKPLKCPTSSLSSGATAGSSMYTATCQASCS
No end group written: not given here.
METRIC: IC50 (nM)

[[record]]
binder = "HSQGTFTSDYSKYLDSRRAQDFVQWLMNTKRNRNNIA [oxyntomodulin]"
metric = "IC50"
value = 107

[[record]]
binder = "HAEGTFTSDVSSYLEGQAAKEFIAWLVKGR (not fully specified (C-terminus)) [glucagon-like peptide-1]"
metric = "IC50"
value = 38.9

